Values compiled from ChEMBL document CHEMBL3612047.

- Assay comment: Growth inhibition of human MOLT4 cells by NCI standard protocol based method
- Assay type: functional
- Test parameters: MOLT-4
Listing: GI50 of selected molecules
Reply with just the number (in µM).

Solved cases below.
[
  {
    "Line notation": "NC(=O)c1cc(I)ccc1NC(=O)COc1ccccc1",
    "U": "µM",
    "GI50": 1.1
  },
  {
    "Line notation": "COc1cc(NC(=O)COc2ccccc2)c(C(N)=O)cc1OC",
    "U": "µM",
    "GI50": 2.91
  },
  {
    "Line notation": "COc1ccc(NC(=O)COc2ccccc2)c(C(N)=O)c1",
    "U": "µM",
    "GI50": 2
  }
]

Now consider the entry below.
Input: // query GI50 value for entry "NC(=O)c1cc(Cl)ccc1NC(=O)COc1ccccc1"
Output: 8.14

---

- Tested on: SN12C
- Assay comment: Growth inhibition of human SN12C cells by NCI standard protocol based method
- Assay type: functional
Listing: GI50 of selected compounds
Reply with just the number (in µM).

[
  {
    "Line notation": "NC(=O)c1cc(I)ccc1NC(=O)COc1ccccc1",
    "Parameter measured": "GI50",
    "Endpoint result": 0.945
  },
  {
    "Line notation": "COc1cc(NC(=O)COc2ccccc2)c(C(N)=O)cc1OC",
    "Parameter measured": "GI50",
    "Endpoint result": 3.12
  },
  {
    "Line notation": "COc1ccc(NC(=O)COc2ccccc2)c(C(N)=O)c1",
    "Parameter measured": "GI50",
    "Endpoint result": 3.09
  }
]

Now consider the entry below.
Input: // query GI50 value for entry "NC(=O)c1cc(Cl)ccc1NC(=O)COc1ccccc1"
Output: 17

---

Listing: GI50 of selected compounds
- Test system: SK-MEL-28
- Assay comment: Growth inhibition of human SK-MEL-28 cells by NCI standard protocol based method
- Type: functional
Reply with just the number (in µM).

Solved cases below.
[
  {
    "Line notation": "NC(=O)c1cc(Cl)ccc1NC(=O)COc1ccccc1",
    "GI50, µM": 6.25
  },
  {
    "Line notation": "NC(=O)c1cc(I)ccc1NC(=O)COc1ccccc1",
    "GI50, µM": 1.79
  },
  {
    "Line notation": "COc1ccc(NC(=O)COc2ccccc2)c(C(N)=O)c1",
    "GI50, µM": 0.502
  }
]

Now consider the entry below.
Input: // query GI50 value for entry "COc1cc(NC(=O)COc2ccccc2)c(C(N)=O)cc1OC"
Output: 24.2

---

- Test system: MDA-MB-231
- Assay comment: Growth inhibition of human MDA-MB-231 cells by NCI standard protocol based method
- Type: functional
Parameter measured: GI50
Put down the number, then write its unit next to it.

[
  {
    "Line notation": "COc1ccc(NC(=O)COc2ccccc2)c(C(N)=O)c1",
    "GI50": "2030 nM"
  },
  {
    "Line notation": "NC(=O)c1cc(I)ccc1NC(=O)COc1ccccc1",
    "GI50": "1280 nM"
  },
  {
    "Line notation": "NC(=O)c1cc(Cl)ccc1NC(=O)COc1ccccc1",
    "GI50": "9010 nM"
  }
]

Now consider the entry below.
Input: // query GI50 value for entry "COc1cc(NC(=O)COc2ccccc2)c(C(N)=O)cc1OC"
Output: 2390 nM

---

Listing: GI50 of selected molecules
- Test system: HCT-116
- Assay comment: Growth inhibition of human HCT116 cells by NCI standard protocol based method
- Assay type: functional
Reply with just the number (in nM).

Input: Find GI50 (HCT-116) for the entry "NC(=O)c1cc(I)ccc1NC(=O)COc1ccccc1"
Output: 517

Input: Find GI50 (HCT-116) for the entry "COc1ccc(NC(=O)COc2ccccc2)c(C(N)=O)c1"
Output: 518

Input: Find GI50 (HCT-116) for the entry "COc1cc(NC(=O)COc2ccccc2)c(C(N)=O)cc1OC"
Output: 620

Input: Find GI50 (HCT-116) for the entry "NC(=O)c1cc(Cl)ccc1NC(=O)COc1ccccc1"
Output: 2720

---

- Assay comment: Growth inhibition of human LOXIMVI cells by NCI standard protocol based method
- Format: functional
- Test parameters: LOX IMVI
Listing: GI50 of selected compounds
Put down the number, then write its unit next to it.

Solved cases below.
[
  {
    "Line notation": "COc1ccc(NC(=O)COc2ccccc2)c(C(N)=O)c1",
    "GI50": "869 nM"
  },
  {
    "Line notation": "NC(=O)c1cc(I)ccc1NC(=O)COc1ccccc1",
    "GI50": "822 nM"
  },
  {
    "Line notation": "COc1cc(NC(=O)COc2ccccc2)c(C(N)=O)cc1OC",
    "GI50": "1810 nM"
  }
]

Now consider the entry below.
Input: // query GI50 value for entry "NC(=O)c1cc(Cl)ccc1NC(=O)COc1ccccc1"
Output: 8330 nM

---

- Assay comment: Growth inhibition of human NCI60 cells assessed as cell growth level at 10 uM by NCI standard protocol based method
- Assay type: functional
- Design: scale not given: the % may be the effect or the level left
Listing: Activity of selected molecules
Reply with just the number (in %).

[
  {
    "Line notation": "NC(=O)c1cc(I)ccc1NC(=O)COc1ccc(Cl)cc1Cl",
    "Activity [%]": 87.28
  }
]

Input: // query Activity value for entry "NC(=O)c1cc(Cl)ccc1NC(=O)COc1ccccc1"
Output: 46.4

Input: // query Activity value for entry "COc1cc(NC(=O)COc2ccccc2)c(C(N)=O)cc1OC"
Output: 27.38

Input: // query Activity value for entry "COc1ccc(NC(=O)COc2ccccc2)c(C(N)=O)c1"
Output: 25.81

Input: // query Activity value for entry "NC(=O)c1cc(I)ccc1NC(=O)COc1ccccc1"
Output: 24.31

---

- Test system: CAKI-1
- Assay comment: Growth inhibition of human CAKI-1 cells by NCI standard protocol based method
- Format: functional
Listing: GI50 of selected compounds
Reply with just the number (in nM).

[
  {
    "Line notation": "NC(=O)c1cc(I)ccc1NC(=O)COc1ccccc1",
    "Endpoint result": 519
  },
  {
    "Line notation": "NC(=O)c1cc(Cl)ccc1NC(=O)COc1ccccc1",
    "Endpoint result": 4180
  },
  {
    "Line notation": "COc1cc(NC(=O)COc2ccccc2)c(C(N)=O)cc1OC",
    "Endpoint result": 3800
  }
]

Now consider the entry below.
Input: // query GI50 value for entry "COc1ccc(NC(=O)COc2ccccc2)c(C(N)=O)c1"
Output: 721

---

- Test system: OVCAR-8
- Assay comment: Growth inhibition of human OVCAR8 cells by NCI standard protocol based method
- Format: functional
Listing: GI50 of selected compounds
Reply with just the number (in µM).

[
  {
    "Line notation": "COc1ccc(NC(=O)COc2ccccc2)c(C(N)=O)c1",
    "Tested on": "OVCAR-8",
    "U": "µM",
    "GI50": 3.13
  },
  {
    "Line notation": "NC(=O)c1cc(I)ccc1NC(=O)COc1ccccc1",
    "Tested on": "OVCAR-8",
    "U": "µM",
    "GI50": 0.904
  },
  {
    "Line notation": "COc1cc(NC(=O)COc2ccccc2)c(C(N)=O)cc1OC",
    "Tested on": "OVCAR-8",
    "U": "µM",
    "GI50": 3.01
  }
]

Now consider the entry below.
Input: Find GI50 (OVCAR-8) for the entry "NC(=O)c1cc(Cl)ccc1NC(=O)COc1ccccc1"
Output: 7.06

---

- Test system: MDA-MB-468
- Assay comment: Growth inhibition of human MDA-MB-468 cells by NCI standard protocol based method
- Type: functional
Parameter measured: GI50 (µM)
Reply with just the number (in µM).

Solved cases below.
[
  {
    "Line notation": "NC(=O)c1cc(Cl)ccc1NC(=O)COc1ccccc1",
    "U": "µM",
    "GI50": 1.74
  },
  {
    "Line notation": "COc1cc(NC(=O)COc2ccccc2)c(C(N)=O)cc1OC",
    "U": "µM",
    "GI50": 0.848
  },
  {
    "Line notation": "COc1ccc(NC(=O)COc2ccccc2)c(C(N)=O)c1",
    "U": "µM",
    "GI50": 0.345
  }
]

Now consider the entry below.
Input: // query GI50 value for entry "NC(=O)c1cc(I)ccc1NC(=O)COc1ccccc1"
Output: 0.351
